These measurements were taken from patent US10689423B2.

Target: mLcn2-Fc
Sequence (as listed by the source): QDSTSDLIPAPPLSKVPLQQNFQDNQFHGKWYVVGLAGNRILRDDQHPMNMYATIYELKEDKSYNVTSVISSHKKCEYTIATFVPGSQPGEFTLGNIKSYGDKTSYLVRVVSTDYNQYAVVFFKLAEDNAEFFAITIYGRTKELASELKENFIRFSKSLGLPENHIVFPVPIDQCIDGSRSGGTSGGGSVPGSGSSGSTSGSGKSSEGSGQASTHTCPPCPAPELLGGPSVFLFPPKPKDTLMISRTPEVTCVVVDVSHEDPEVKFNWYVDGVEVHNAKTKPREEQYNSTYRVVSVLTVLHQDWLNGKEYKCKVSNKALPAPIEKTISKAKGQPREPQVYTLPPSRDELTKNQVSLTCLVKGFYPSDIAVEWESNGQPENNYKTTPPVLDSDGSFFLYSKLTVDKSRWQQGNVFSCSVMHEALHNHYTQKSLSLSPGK
Assay: SPR of analyte mLcn2-Fc flowed over immobilized Peptide12
Assay type: binding
Details: peptide immobilized on CM5 chip, three independent experiments
ENDPOINT NAME: Kd (µM)
Report the value in µM with no unit label.

Could you share which Kd value was measured for CSVLPPFMC [Peptide 12] ? 3.4
